Source of measurements: patent US8455528B2

Target: Human FAAH (Homo sapiens, UniProt O00519)
Construct: The full length FAAH was subcloned into the mammalian expression vector, pcDEF.neo; expressed in transfected cells
Sequence (O00519 whole entry): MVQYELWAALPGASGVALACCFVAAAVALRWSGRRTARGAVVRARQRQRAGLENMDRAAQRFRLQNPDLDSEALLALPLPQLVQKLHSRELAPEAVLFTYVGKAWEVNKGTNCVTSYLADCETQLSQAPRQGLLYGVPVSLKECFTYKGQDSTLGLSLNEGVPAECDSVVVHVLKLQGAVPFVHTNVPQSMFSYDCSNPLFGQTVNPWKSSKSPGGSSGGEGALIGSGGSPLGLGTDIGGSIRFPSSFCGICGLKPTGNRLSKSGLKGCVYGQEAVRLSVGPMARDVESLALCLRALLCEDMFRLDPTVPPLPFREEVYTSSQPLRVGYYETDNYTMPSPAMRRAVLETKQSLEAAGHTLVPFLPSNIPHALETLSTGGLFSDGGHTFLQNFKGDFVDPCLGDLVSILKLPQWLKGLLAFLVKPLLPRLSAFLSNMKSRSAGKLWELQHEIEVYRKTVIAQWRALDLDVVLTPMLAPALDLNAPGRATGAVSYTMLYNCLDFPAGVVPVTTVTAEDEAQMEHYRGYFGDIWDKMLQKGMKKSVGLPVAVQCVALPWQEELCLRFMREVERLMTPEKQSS
Experiment: Human FAAH whole cell assay (FAAH_CHO cells)
Format: cell-based
Conditions: FAAH inhibition, whole CHO cells expressing human FAAH
Excerpt: To assist in assay development stable cell lines for human, murine and rat full length FAAH were developed. Human FAAH cDNA (Accession No: NM_001441.1) was purchased from Origene (Rockville, Md.). The full length FAAH was subcloned into the mammalian expression vector, pcDEF.neo, using XbaI and EcoRI restriction sites and used for stable cell line generation. […]
readout label: pIC50
Please keep in mind that pIC50 is minus log10 of the molar concentration; only the number is needed.

Incoming: Consider the compound shown here: CC(C)c1nc(-c2ccc(S(C)(=O)=O)cc2)c(Sc2ccc(Cl)cc2)n1C What is its recorded pIC50?
Outgoing: 6.32

Incoming: Consider the compound shown here: Cn1cnc(-c2ccc(C#N)cc2)c1Sc1ccc(Cl)cc1 What is its recorded pIC50?
Outgoing: 5.53

Incoming: Consider the compound shown here: CS(=O)(=O)c1ccc(-c2nc(C3CCC3)[nH]c2Sc2ccc(Cl)cc2)cc1 What is its recorded pIC50?
Outgoing: 5.52

Incoming: Consider the compound shown here: Cn1c(-c2ccccn2)nc(-c2ccc(-c3nnco3)cc2)c1Sc1ccc(Cl)cn1 What is its recorded pIC50?
Outgoing: 7.31

Incoming: Consider the compound shown here: Cn1c(-c2ccccc2)nc(-c2ccc(C#N)cc2)c1Sc1ccc(Cl)cc1 What is its recorded pIC50?
Outgoing: 7.07

Incoming: Consider the compound shown here: Cn1c(-c2ccccn2)nc(-c2ccc(C(O)C(F)F)cc2)c1Sc1ccc(Cl)cc1 (stereo not drawn) What is its recorded pIC50?
Outgoing: 7.17

Incoming: Consider the compound shown here: Cn1c(-c2ccccn2)nc(-c2ccc(N)cc2)c1Sc1ccc(Cl)cc1 What is its recorded pIC50?
Outgoing: 6.00

Incoming: Consider the compound shown here: Cn1c(C2CCC2)nc(-c2ccc(S(C)(=O)=O)cc2)c1Sc1ccc(Cl)cc1 What is its recorded pIC50?
Outgoing: 6.97

Incoming: Consider the compound shown here: Cn1c(-c2ccccn2)nc(-c2ccc(-n3ccnn3)cc2)c1Sc1ccc(Cl)cc1 What is its recorded pIC50?
Outgoing: 7.28
